Tested on: 966289-007-R4-J1-PDC complex spheroid viability
test_summary: Anticancer human tumor 966289-007-R4-J1-PDC patient-derived pancreatic adenocarcinoma cell line growth inhibition [GQUAD]; active = viability on the fitted dose curve at most 10% of control; inactive = the rest
condition_description: second compound 1 µM; first compound 0.0999 µM
Entry note: the call must match one of active, inactive

>  <molecule>
Cn1ncnc1[C@H]1c2n[nH]c(=O)c3cc(F)cc(c23)N[C@@H]1c1ccc(F)cc1 + Cc1[nH]c2ccc(F)cc2c1-c1nc2c3cccnc3c3ncccc3c2[nH]1

>  <class_label>
inactive

$$$$
>  <molecule>
CCc1c2c(nc3ccc(O)cc13)-c1cc3c(c(=O)n1C2)COC(=O)[C@]3(O)CC + Cc1[nH]c2ccc(F)cc2c1-c1nc2c3cccnc3c3ncccc3c2[nH]1

>  <class_label>
active

$$$$
>  <molecule>
Cn1ncnc1[C@H]1c2n[nH]c(=O)c3cc(F)cc(c23)N[C@@H]1c1ccc(F)cc1 + Cc1cnc(CNC(=O)c2c(=O)c3ccc(N4CCCN(C)CC4)nc3n3c2sc2ccccc23)cn1

>  <class_label>
active

$$$$
>  <molecule>
CCc1c2c(nc3ccc(O)cc13)-c1cc3c(c(=O)n1C2)COC(=O)[C@]3(O)CC + Cc1cnc(CNC(=O)c2c(=O)c3ccc(N4CCCN(C)CC4)nc3n3c2sc2ccccc23)cn1

>  <class_label>
active

$$$$
>  <molecule>
CC[C@@]1(O)C(=O)OCc2c1cc1n(c2=O)Cc2cc3c(CN(C)C)c(O)ccc3nc2-1 + CN(C)c1ccc(Nc2c3ccc(NC(=O)CCN4CCCC4)cc3nc3cc(NC(=O)CCN4CCCC4)ccc23)cc1

>  <class_label>
active

$$$$

Okay, now this molecule:
Request: Could you kindly confirm the outcome this assay logged for CCc1c2c(nc3ccc(O)cc13)-c1cc3c(c(=O)n1C2)COC(=O)[C@]3(O)CC + CN(C)c1ccc(Nc2c3ccc(NC(=O)CCN4CCCC4)cc3nc3cc(NC(=O)CCN4CCCC4)ccc23)cc1 ?
Result: active

* * *

Test system: 966289-007-R4-J1-PDC complex spheroid viability
test_summary: Anticancer human tumor 966289-007-R4-J1-PDC cell line growth inhibition [GQUAD]
condition_description: second compound 10 µM; first compound 0.316 µM; stronger effect = lower value
Values of viability, T/C strictly less than 5% map to YES, and values of at least 5% map to NO.

>  <compound>
CCCS(=O)(=O)Nc1ccc(F)c(C(=O)c2c[nH]c3ncc(-c4ccc(Cl)cc4)cc23)c1F + CN(C)c1ccc(Nc2c3ccc(NC(=O)CCN4CCCC4)cc3nc3cc(NC(=O)CCN4CCCC4)ccc23)cc1

>  <assayed_target>
966289-007-R4-J1-PDC complex spheroid viability

>  <class_label>
NO

$$$$
>  <compound>
O=C(c1cc(Cc2n[nH]c(=O)c3ccccc23)ccc1F)N1CCN(C(=O)C2CC2)CC1 + Cc1[nH]c2ccc(F)cc2c1-c1nc2c3cccnc3c3ncccc3c2[nH]1

>  <assayed_target>
966289-007-R4-J1-PDC complex spheroid viability

>  <class_label>
NO

$$$$
>  <compound>
CC1COCCN1c1cc(-c2ccnn2C)c2ccnc(-c3ccn[nH]3)c2n1 (stereo unspecified) + Cc1[nH]c2ccc(F)cc2c1-c1nc2c3cccnc3c3ncccc3c2[nH]1

>  <assayed_target>
966289-007-R4-J1-PDC complex spheroid viability

>  <class_label>
NO

$$$$
>  <compound>
CC(C)(O)C1CCC(Nc2ccc3ncc(-c4cccc(C(F)(F)F)c4)n3n2)CC1 (stereo unspecified) + Cc1cnc(CNC(=O)c2c(=O)c3ccc(N4CCCN(C)CC4)nc3n3c2sc2ccccc23)cn1

>  <assayed_target>
966289-007-R4-J1-PDC complex spheroid viability

>  <class_label>
YES

$$$$
>  <compound>
COc1cc(C2c3cc4c(cc3C(OC3OC5COC(C)OC5C(O)C3O)C3COC(=O)C23)OCO4)cc(OC)c1O (stereo unspecified) + CN(C)c1ccc(Nc2c3ccc(NC(=O)CCN4CCCC4)cc3nc3cc(NC(=O)CCN4CCCC4)ccc23)cc1

>  <assayed_target>
966289-007-R4-J1-PDC complex spheroid viability

>  <class_label>
NO

$$$$

Okay, now this compound:
Request: Please determine if Cc1[nH]c2ccccc2c1CCNCc1ccc(/C=C/C(=O)NO)cc1 + Cc1cnc(CNC(=O)c2c(=O)c3ccc(N4CCCN(C)CC4)nc3n3c2sc2ccccc23)cn1 is below 5% in terms of viability, T/C.
Result: YES

* * *

Tested on: 966289-007-R4-J1-PDC complex spheroid viability
test_summary: Anticancer human tumor 966289-007-R4-J1-PDC cell line growth inhibition [GQUAD];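 also: spheroids exposed to the agents for seven days before readout; percent viability relative to DMSO vehicle control wells taken as 100%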
condition_description: second compound 0.1 µM; first compound 10 µM; stronger effect = lower value
Recorded viability, T/C by entry
Write the answer as a number in %, unit excluded.

Sample records with viability, T/C:
>  <compound>
O=c1[nH]cc(F)c(=O)[nH]1 + Cc1cnc(CNC(=O)c2c(=O)c3ccc(N4CCCN(C)CC4)nc3n3c2sc2ccccc23)cn1

>  <units_of_measure>
%

>  <recorded_value>
9.1

$$$$
>  <compound>
COc1cccc2c1C(=O)c1c(O)c3c(c(O)c1C2=O)CC(O)(C(=O)CO)CC3OC1CC(N)C(O)C(C)O1 (stereo not drawn) + Cc1cnc(CNC(=O)c2c(=O)c3ccc(N4CCCN(C)CC4)nc3n3c2sc2ccccc23)cn1

>  <units_of_measure>
%

>  <recorded_value>
0.54

$$$$

Request: Value lookup for viability, T/C; key = CC1COCCN1c1cc(C2(S(C)(=N)=O)CC2)nc(-c2ccnc3[nH]ccc23)n1 (stereo not drawn) + Cc1[nH]c2ccc(F)cc2c1-c1nc2c3cccnc3c3ncccc3c2[nH]1
Result: 8.79

* * *

Recorded viability, T/C by entry
Tested on: 966289-007-R4-J1-PDC complex spheroid viability
test_summary: Anticancer human tumor 966289-007-R4-J1-PDC cell line growth inhibition [GQUAD];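 also: spheroids exposed to the agents for seven days before readout; percent viability relative to DMSO vehicle control wells taken as 100%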
condition_description: second compound 10 µM; first compound 0.00316 µM; stronger effect = lower value
Write the answer as a number in %, unit excluded.

Sample records with viability, T/C:
>  <molecule>
Cn1ncnc1[C@H]1c2n[nH]c(=O)c3cc(F)cc(c23)N[C@@H]1c1ccc(F)cc1 + Cc1[nH]c2ccc(F)cc2c1-c1nc2c3cccnc3c3ncccc3c2[nH]1

>  <assayed_target>
966289-007-R4-J1-PDC complex spheroid viability

>  <viability, T/C (%)>
105

$$$$
>  <molecule>
Cn1ncnc1[C@H]1c2n[nH]c(=O)c3cc(F)cc(c23)N[C@@H]1c1ccc(F)cc1 + Cc1cnc(CNC(=O)c2c(=O)c3ccc(N4CCCN(C)CC4)nc3n3c2sc2ccccc23)cn1

>  <assayed_target>
966289-007-R4-J1-PDC complex spheroid viability

>  <viability, T/C (%)>
0.15

$$$$
>  <molecule>
CC[C@@]1(O)C(=O)OCc2c1cc1n(c2=O)Cc2cc3c(CN(C)C)c(O)ccc3nc2-1 + Cc1cnc(CNC(=O)c2c(=O)c3ccc(N4CCCN(C)CC4)nc3n3c2sc2ccccc23)cn1

>  <assayed_target>
966289-007-R4-J1-PDC complex spheroid viability

>  <viability, T/C (%)>
0.08

$$$$
>  <molecule>
CCc1c2c(nc3ccc(O)cc13)-c1cc3c(c(=O)n1C2)COC(=O)[C@]3(O)CC + Cc1[nH]c2ccc(F)cc2c1-c1nc2c3cccnc3c3ncccc3c2[nH]1

>  <assayed_target>
966289-007-R4-J1-PDC complex spheroid viability

>  <viability, T/C (%)>
1.12

$$$$

Now turn to the next molecule.
Request: Value lookup for viability, T/C; key = Cn1ncnc1[C@H]1c2n[nH]c(=O)c3cc(F)cc(c23)N[C@@H]1c1ccc(F)cc1 + CN(C)c1ccc(Nc2c3ccc(NC(=O)CCN4CCCC4)cc3nc3cc(NC(=O)CCN4CCCC4)ccc23)cc1
Result: 104

* * *

Test system: 966289-007-R4-J1-PDC complex spheroid viability
test_summary: Anticancer human tumor 966289-007-R4-J1-PDC cell line growth inhibition [GQUAD]; active means viability on the fitted dose curve at most 10% of control; inactive means the rest;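 also: spheroids exposed to the agents for seven days before readout; percent viability relative to DMSO vehicle control wells taken as 100%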
condition_description: second compound 10 µM; first compound 3.16 µM
Entry note: the call must match one of true = active, false = inactive

Request: Could you kindly confirm the outcome this assay logged for Nc1ccn(C2OC(CO)C(O)C2(F)F)c(=O)n1 (stereo unspecified) + CN(C)c1ccc(Nc2c3ccc(NC(=O)CCN4CCCC4)cc3nc3cc(NC(=O)CCN4CCCC4)ccc23)cc1 ?
Result: true

Request: Try this molecule next: O=C(c1cc(Cc2n[nH]c(=O)c3ccccc23)ccc1F)N1CCN(C(=O)C2CC2)CC1 + Cc1[nH]c2ccc(F)cc2c1-c1nc2c3cccnc3c3ncccc3c2[nH]1
Result: false

* * *

Tested on: 966289-007-R4-J1-PDC complex spheroid viability
test_summary: Anticancer human tumor 966289-007-R4-J1-PDC cell line growth inhibition [GQUAD]; active = viability on the fitted dose curve at most 10% of control; inactive = the rest;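 also: spheroids exposed to the agents for seven days before readout; percent viability relative to DMSO vehicle control wells taken as 100%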
condition_description: second compound 1 µM; first compound 0.0316 µM
Entry note: the call must match one of active, inactive

Observe how each entry below is paired with its result.
>  <compound>
CC1COCCN1c1cc(C2(S(C)(=N)=O)CC2)nc(-c2ccnc3[nH]ccc23)n1 (stereo not drawn) + CN(C)c1ccc(Nc2c3ccc(NC(=O)CCN4CCCC4)cc3nc3cc(NC(=O)CCN4CCCC4)ccc23)cc1

>  <assayed_target>
966289-007-R4-J1-PDC complex spheroid viability

>  <class_label>
inactive

$$$$
>  <compound>
Cc1[nH]c2ccccc2c1CCNCc1ccc(/C=C/C(=O)NO)cc1 + Cc1[nH]c2ccc(F)cc2c1-c1nc2c3cccnc3c3ncccc3c2[nH]1

>  <assayed_target>
966289-007-R4-J1-PDC complex spheroid viability

>  <class_label>
inactive

$$$$
>  <compound>
O=C(c1cc(Cc2n[nH]c(=O)c3ccccc23)ccc1F)N1CCN(C(=O)C2CC2)CC1 + Cc1[nH]c2ccc(F)cc2c1-c1nc2c3cccnc3c3ncccc3c2[nH]1

>  <assayed_target>
966289-007-R4-J1-PDC complex spheroid viability

>  <class_label>
inactive

$$$$
>  <compound>
CC(C)(O)C1CCC(Nc2ccc3ncc(-c4cccc(C(F)(F)F)c4)n3n2)CC1 (stereo not drawn) + Cc1cnc(CNC(=O)c2c(=O)c3ccc(N4CCCN(C)CC4)nc3n3c2sc2ccccc23)cn1

>  <assayed_target>
966289-007-R4-J1-PDC complex spheroid viability

>  <class_label>
active

$$$$

Request: Could you kindly confirm the outcome this assay logged for CCCS(=O)(=O)Nc1ccc(F)c(C(=O)c2c[nH]c3ncc(-c4ccc(Cl)cc4)cc23)c1F + CN(C)c1ccc(Nc2c3ccc(NC(=O)CCN4CCCC4)cc3nc3cc(NC(=O)CCN4CCCC4)ccc23)cc1 ?
Result: inactive

Request: Try this compound next: CC(C)n1c(=O)n(C)c2cnc3cc(F)c(-c4ccc(OCCCN5CCCCC5)nc4)cc3c21 + CN(C)c1ccc(Nc2c3ccc(NC(=O)CCN4CCCC4)cc3nc3cc(NC(=O)CCN4CCCC4)ccc23)cc1
Result: inactive

Request: Try this compound next: O=C(NO)c1cnc(N2CCN(S(=O)(=O)c3ccc4ccccc4c3)CC2)nc1 + Cc1[nH]c2ccc(F)cc2c1-c1nc2c3cccnc3c3ncccc3c2[nH]1
Result: inactive

Request: Try this compound next: CC(C)(O)C1CCC(Nc2ccc3ncc(-c4cccc(C(F)(F)F)c4)n3n2)CC1 (stereo not drawn) + CN(C)c1ccc(Nc2c3ccc(NC(=O)CCN4CCCC4)cc3nc3cc(NC(=O)CCN4CCCC4)ccc23)cc1
Result: inactive
